# assay explanation: Pharmacokinetic study of the chylomicron and micelle compositions in rats (gavage and i.v.)
# Format: in vivo, male Sprague-Dawley rats
# condition notes: male, Sprague-Dawley, rat, in vivo, iv, 1.43 mg/kg, Tmax
recorded endpoint: Tmax
# output: number + unit

CC(C)=CCC/C(C)=C/C=C/C(C)=C/C=C/C(C)=C/C=C/C=C(C)/C=C/C=C(C)/C=C/C=C(\C)CCC=C(C)C yielded Tmax of 2 min

###

# assay explanation: Pharmacokinetic study of the chylomicron and micelle compositions in rats (gavage and i.v.)
# Assay type: in vivo, male Sprague-Dawley rats
# condition notes: male, Sprague-Dawley, rat, in vivo, po, 14.3 mg/kg, Tmax
recorded endpoint: Tmax
Respond with the figure and its unit, in that order.

Tmax measured on CC(C)=CCC/C(C)=C/C=C/C(C)=C/C=C/C(C)=C/C=C/C=C(C)/C=C/C=C(C)/C=C/C=C(\C)CCC=C(C)C [Solanorubin, solanorubin] = 2 h
